Here the recorded pKi is given for each entry.
# measured target: UniProtKB P50406
# Sequence (P50406 whole entry): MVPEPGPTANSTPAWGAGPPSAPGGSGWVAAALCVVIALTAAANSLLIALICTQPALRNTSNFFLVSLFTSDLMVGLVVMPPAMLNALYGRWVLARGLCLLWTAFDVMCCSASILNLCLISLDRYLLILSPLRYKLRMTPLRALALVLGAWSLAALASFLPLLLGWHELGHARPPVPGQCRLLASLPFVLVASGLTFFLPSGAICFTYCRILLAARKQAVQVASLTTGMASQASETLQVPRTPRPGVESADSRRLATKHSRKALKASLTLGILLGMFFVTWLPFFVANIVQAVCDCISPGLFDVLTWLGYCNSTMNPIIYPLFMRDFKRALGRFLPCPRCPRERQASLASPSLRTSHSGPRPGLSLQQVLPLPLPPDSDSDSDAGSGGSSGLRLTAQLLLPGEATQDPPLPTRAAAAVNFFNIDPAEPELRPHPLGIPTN
pKi: −log10 of the molar value.
property measured: pKi

| structure smiles | property measured | observed measurement |
| --- | --- | --- |
| CN1CCC[C@@H]1Cc1c[nH]c2ccc(NS(=O)(=O)c3ccc(Cl)c(Cl)c3)cc12 | pKi | 9.00 |
| O=S(=O)(Nc1ccc2[nH]cc(C[C@H]3CCCN3)c2c1)c1ccc(OC(F)(F)F)cc1 | pKi | 8.30 |
| CN1CCC[C@@H]1Cc1c[nH]c2ccc(NS(=O)(=O)c3ccc(F)cc3)cc12 | pKi | 9.00 |
| CN1CCC[C@@H]1Cc1c[nH]c2ccc(NS(=O)(=O)c3ccc4ccccc4c3)cc12 | pKi | 9.00 |
| O=S(=O)(Nc1ccc2[nH]cc(C[C@H]3CCCN3)c2c1)c1ccc(I)cc1 | pKi | 9.00 |
| O=S(=O)(Nc1ccc2[nH]cc(C[C@H]3CCCN3)c2c1)c1ccc(Br)cc1 | pKi | 8.52 |
| CN1CCC[C@H]1Cc1c[nH]c2ccc(NS(=O)(=O)c3ccc(Cl)c(Cl)c3)cc12 | pKi | 8.15 |
| CN1CCC[C@H]1Cc1c[nH]c2ccc(NS(=O)(=O)c3cccc(C(F)(F)F)c3)cc12 | pKi | 7.92 |
| Cc1noc(C)c1S(=O)(=O)Nc1ccc2[nH]cc(C[C@H]3CCCN3C)c2c1 | pKi | 9.00 |
| O=S(=O)(Nc1ccc2[nH]cc(C[C@H]3CCCN3)c2c1)c1ccc(Cl)c(Cl)c1 | pKi | 8.52 |
| CN1CCC[C@@H]1Cc1c[nH]c2ccc(NS(=O)(=O)c3cccc(C(F)(F)F)c3)cc12 | pKi | 9.00 |
| O=S(=O)(Nc1ccc2[nH]cc(C[C@H]3CCCN3)c2c1)c1ccccc1F | pKi | 8.40 |
| Cc1ccc(S(=O)(=O)Nc2ccc3[nH]cc(C[C@H]4CCCN4)c3c2)cc1 | pKi | 8.40 |
| CN1CCC[C@@H]1Cc1c[nH]c2ccc(NS(=O)(=O)c3ccc(OC(F)(F)F)cc3)cc12 | pKi | 9.00 |
| O=S(=O)(Nc1ccc2[nH]cc(C[C@H]3CCCN3)c2c1)c1ccc(F)cc1Cl | pKi | 8.05 |
| O=S(=O)(Nc1ccc2[nH]cc(C[C@H]3CCCN3)c2c1)c1ccccc1Cl | pKi | 8.52 |
| CN1CCC[C@H]1Cc1c[nH]c2ccc(NS(=O)(=O)c3ccccc3Cl)cc12 | pKi | 7.66 |
| CN1CCC[C@@H]1Cc1c[nH]c2ccc(NS(=O)(=O)c3ccccc3F)cc12 | pKi | 9.00 |
| CN1CCC[C@H]1Cc1c[nH]c2ccc(NS(=O)(=O)c3ccccc3)cc12 | pKi | 7.80 |
